biological target: CYP2C9 (Homo sapiens, UniProt P11712); assay: Inhibition of human recombinant CYP2C9 at 10 uM by spectrofluorimetry; type: ADME
Sequence (P11712 whole entry): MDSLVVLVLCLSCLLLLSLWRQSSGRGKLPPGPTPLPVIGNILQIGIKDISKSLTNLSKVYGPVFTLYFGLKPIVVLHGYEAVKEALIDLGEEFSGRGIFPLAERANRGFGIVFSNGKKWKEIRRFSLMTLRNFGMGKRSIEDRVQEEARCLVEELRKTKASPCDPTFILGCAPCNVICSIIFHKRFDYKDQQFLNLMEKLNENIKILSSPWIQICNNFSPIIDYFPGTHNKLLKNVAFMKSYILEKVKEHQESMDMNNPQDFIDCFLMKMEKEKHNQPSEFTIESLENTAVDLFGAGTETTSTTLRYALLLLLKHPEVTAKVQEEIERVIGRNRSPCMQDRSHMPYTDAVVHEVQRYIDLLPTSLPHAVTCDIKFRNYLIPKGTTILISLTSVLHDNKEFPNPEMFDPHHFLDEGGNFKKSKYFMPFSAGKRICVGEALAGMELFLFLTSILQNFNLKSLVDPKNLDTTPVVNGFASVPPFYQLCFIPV
Use 40% as the dividing line for inhibition at 10 µM, with the line itself on the 1 side and lower values as -1.

Query :: Quick check: does CCCCOC(=O)NS(=O)(=O)c1sc(CC(C)C)cc1-c1ccc(CN2CCC(=O)CC2)cc1 have inhibition at 10 µM greater than or equal to 40%?
Result :: 1

Query :: Check CCCCOC(=O)NS(=O)(=O)c1sc(CC(C)C)cc1-c1ccc(CN2CCN(C)C2=O)cc1 too.
Result :: -1

Query :: Query CCCCOC(=O)NS(=O)(=O)c1sc(CC(C)C)cc1-c1ccc(CN2C(=O)N(C)C(C)(C)C2=O)cc1 next
Result :: -1
